Assayed system: ovine COX-2 (Ovis aries)
Sequence (P79208 17-603): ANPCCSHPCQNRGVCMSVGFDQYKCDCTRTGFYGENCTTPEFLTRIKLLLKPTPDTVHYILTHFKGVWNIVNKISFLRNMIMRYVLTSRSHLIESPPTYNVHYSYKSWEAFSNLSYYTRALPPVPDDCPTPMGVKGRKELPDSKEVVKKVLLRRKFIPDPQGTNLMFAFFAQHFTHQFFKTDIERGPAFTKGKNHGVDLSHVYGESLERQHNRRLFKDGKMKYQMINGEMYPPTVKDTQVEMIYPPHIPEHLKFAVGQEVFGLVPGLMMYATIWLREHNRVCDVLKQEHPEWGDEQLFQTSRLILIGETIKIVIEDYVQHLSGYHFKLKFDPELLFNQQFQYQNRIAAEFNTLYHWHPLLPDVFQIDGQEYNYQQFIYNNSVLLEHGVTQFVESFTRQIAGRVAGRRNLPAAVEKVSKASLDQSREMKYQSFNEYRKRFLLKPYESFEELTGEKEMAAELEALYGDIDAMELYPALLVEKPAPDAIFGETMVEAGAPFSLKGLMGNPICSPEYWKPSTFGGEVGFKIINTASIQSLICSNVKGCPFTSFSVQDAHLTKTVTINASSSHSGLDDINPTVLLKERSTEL
Measurement protocol: Inhibition of ovine cyclooxygenase-2 (TMPD co-substrate)
pIC50: −log10 of the molar value.
Readout type: pIC50

Examples from the recorded data:
Compound: CN(C)c1ccc(-c2cn(C(=O)/C=C/c3ccccc3)cc2C(=O)c2ccc(Cl)cc2)cc1 [compound 6]
Readout type: pIC50
Test result: 5.15
//
Compound: CN(C)c1ccc(-c2cn(C(=O)/C=C/c3ccccc3)cc2C(=O)c2cccs2)cc1 [compound 7]
Readout type: pIC50
Test result: 5.14

1: CN(C)c1ccc(/C=C/c2c[nH]cc2C(=O)c2ccc(Cl)cc2)cc1 [compound 1]
2: CN(C)c1ccc(/C=C/c2cn(C(=O)/C=C/c3ccccc3)cc2C(=O)c2ccccc2)cc1 [compound 5]
Exam item: // select label with min value of measured pIC50 from [ 1 , 2 ] State your choice using its label.
Marked response: 1
(1: 5.00, 2: 6.26)
